test.protocol: PSAC antagonists in infected red cells, primary screen, cell-based, P. falciparum Indochina, OD700, 1 h (AID 1154)
condition.description: P. falciparum Indochina infected RBC osmotic lysis, higher = more signal, called active from +8 up or from −8 down
I'd appreciate it if you could supply z-score values for the items below.
// keep it numeric: no unit symbol after the value

stdin: Consider the molecule shown here: Cc1ccccc1C(O)C1C=CC2C(=O)N(C)C(=O)C2N1N(c1ccccc1)c1ccccc1 (centres undefined) What is its recorded z-score?
stdout: 3.21

stdin: Check `CCOC(=O)c1ccc(NC(=O)O[C@H]2[C@H](OC(=O)Nc3ccc4c(c3)OCO4)[C@H](OC(=O)Nc3ccc4c(c3)OCO4)[C@@H](OC)O[C@@H]2CO)cc1` too.
stdout: 23.4

stdin: Repeat for the following molecule: Cc1cc(C)c(C(O)C2C=CC3C(=O)NC(=O)C3N2Nc2ccc(Cl)cc2Cl)c(C)c1 (centres undefined)
stdout: 3.38

stdin: Now consider `CCC[C@@H]1C[C@@]1(CCC)[C@@H](NC(=O)OCc1ccccc1)c1ccc(-c2ccccc2)cc1` and answer again.
stdout: 3.2

====

Test system: Neuregulin-1 EGF-like domain
test.protocol: binders of neuregulin-1 EGF-like domain, primary screen, biochemical, small-molecule microarray, 635 nm fluorescence (AID 1081);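 also: binding of the protein to compounds printed on small-molecule microarray slides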
condition.description: small-molecule microarray binding, higher = more signal
Kind request: treat 1 as inclusive, so composite z-score at 1 or higher is Yes, anything lower is No.

stdin: Does the reported composite z-score for CN1C(=O)C2C=CC(C(O)c3ccc(F)cc3)N(Nc3ccccc3)C2C1=O (stereo not drawn) fall at or above the 1 mark?
stdout: Yes

stdin: Next compound up: `O=C1N(Cc2ccccc2)c2ccccc2[C@@H]2OC(c3ccc(OCCCO)cc3)=N[C@]12Cc1ccccc1`
stdout: Yes

stdin: Also CC(c1ccccc1)C(O)C1C=CC2C(=O)N(c3ccccc3)C(=O)C2N1Nc1ccc([N+](=O)[O-])cc1 (stereo not drawn) , if possible.
stdout: Yes

stdin: `COCCOC(=O)N1C(=O)[C@@]2(c3cc(C#CCCO)ccc31)[C@H](c1ccccc1OCCO)N1[C@H](c3ccccc3)[C@H](c3ccccc3)OC(=O)[C@H]1[C@@H]2C(=O)Nc1nc2ccccc2s1` ?
stdout: Yes

stdin: `COC(=O)[C@@]1(Cc2ccc(OC)cc2)[C@@H]2C(=CC(=O)[C@H]2CC(=O)C(=O)N(C)C)CN1C(=O)c1ccccc1` , same question.
stdout: Yes

stdin: Please give the result for `CN(C)C(=O)[C@@]1(CCS(=O)(=O)c2ccccc2)N=C(c2ccc(OCCCO)cc2)O[C@H]1c1ccccc1` too.
stdout: Yes

stdin: And for CC(CO)N1C(=O)[C@@H]2[C@H]3C(=O)OCC=C[C@H]3OC23C=CCN(C(C)(C)C)C(=O)[C@@H]13 (stereo partly drawn) ?
stdout: Yes

stdin: Try CC(CO)N1C(=O)[C@@H]2[C@H]3C(=O)OCC=C[C@H]3OC23C=CCN(Cc2ccccc2)C(=O)[C@@H]13 (stereo partly drawn) next.
stdout: No

stdin: Cool, now `CCOC(=O)C[C@H]1[C@H](OC(=O)c2cc3ccccc3oc2=O)[C@@H](NC(=O)c2ccc(-c3ccccc3)cc2)c2cc(OCCCO)ccc2N1C(=O)c1ccc2ccccc2n1`
stdout: Yes

stdin: Request: `COc1cc2c(cc1OC)CN(C(=O)[C@@H]1[C@H]3C(=O)O[C@H](c4ccccc4)[C@H](c4ccccc4)N3[C@H](c3ccc(OCCO)cc3)[C@@]13C(=O)Nc1ccc(C#CC4(O)CCCCCC4)cc13)CC2`
stdout: Yes

stdin: // next record `CCOC(=O)c1ccc(NC(=O)O[C@H]2[C@H](OC(=O)Nc3ccc4c(c3)OCO4)[C@H](OC(=O)Nc3ccc4c(c3)OCO4)[C@@H](OC)O[C@@H]2CO)cc1`
stdout: Yes

stdin: What do you get for `CCOC(=O)C[C@H]1[C@H](OC(=O)Cc2ccc3c(c2)OCO3)[C@@H](NC(=O)Cc2ccc(OC)cc2)c2cc(OCCCO)ccc2N1C(=O)c1ccc2ccccc2n1` ?
stdout: No

stdin: Next compound up: `CCOC(=O)C[C@H]1[C@H](OC(=O)Cc2ccc3c(c2)OCO3)[C@@H](NC(=O)CC(C)C)c2cc(OCCCO)ccc2N1C(=O)Cc1ccc(OC)cc1`
stdout: No

====

For each record, write down the corresponding composite z-score.
test.protocol: small-molecule microarray binders of probe aLefty2, primary screen, biochemical, biotinylated probe, 635/667 nm fluorescence (AID 1094);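 also: score merges spot fluorescence near 667 nm with spot signal-to-noise ratio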
condition.description: higher = more signal
Hey, just send me the number, nothing else.

stdin: Quick one: composite z-score for `COc1cc2c(cc1OC)CN(C(=O)[C@@H]1[C@H]3C(=O)O[C@H](c4ccccc4)[C@H](c4ccccc4)N3[C@H](c3ccc(OCCO)cc3)[C@@]13C(=O)Nc1ccccc13)CC2` ?
stdout: -0.126

stdin: Another compound to look at: `COc1ccc(CN(C2=CC[C@@]3(C(N)=O)C(=O)C(Cl)=C(Cl)C(=O)[C@@]3(C#N)C2)S(=O)(=O)c2ccc(Br)cc2)cc1`
stdout: 0.0496

stdin: Now the same for CN(C)c1ccc(C(O)C2C=CC3C(=O)N(c4ccccc4)C(=O)C3N2Nc2ccc([N+](=O)[O-])cc2)cc1 (stereo not drawn)
stdout: 0.401

stdin: How about this compound: C=C(C)[C@@H]1CC=C(C(O)C2C=CC3C(=O)N(c4ccccc4)C(=O)C3N2Nc2ccccc2F)CC1 (stereo partly drawn)
stdout: 0.0865

stdin: And then CCOc1cc(C(O)C2C=CC3C(=O)N(C)C(=O)C3N2Nc2ccccc2)ccc1O (stereo not drawn) , what is it?
stdout: 0.0258

stdin: Another compound: `COc1ccc([Si](C)(C)[C@H]2[C@H](CC(=O)N(CCO)Cc3ccccc3)O[C@@]3(C(=O)N(Cc4cccc(N5CCOC5=O)c4)c4ccccc43)[C@@H]2C)cc1`
stdout: -0.0724

stdin: Now this one: `CCOC(=O)c1ccc(NC(=O)O[C@H]2[C@H](OC(=O)Nc3ccc4c(c3)OCO4)[C@H](OC(=O)Nc3ccc4c(c3)OCO4)[C@@H](OC)O[C@@H]2CO)cc1`
stdout: 0.17

stdin: Then what about the compound `CC(C)C(=C=CC[C@H](O)c1ccc(OCCO)cc1)C[C@H](O)c1ccccn1` ?
stdout: -0.142

stdin: Can you handle `CN(C)CCCNC(=O)[C@@H]1c2ccccc2C(=O)N(Cc2ccccc2Cl)[C@H]1c1ccc(CO)cc1` next?
stdout: -0.295

stdin: For Cn1cccc1C(O)C1C=CC2C(=O)NC(=O)C2N1Nc1ccc(Cl)cc1Cl (stereo not drawn) then?
stdout: 0.673

stdin: Ok, now `[N-]=[N+]=Nc1ccccc1C[C@]1(C(N)=O)N=C(c2ccc(OCCCO)cc2)O[C@H]1c1ccccc1N=[N+]=[N-]`
stdout: 0.546

stdin: Again, but for `COCCCNC(=O)[C@@]1(Cc2ccccc2CN=[N+]=[N-])N=C(c2ccc(OCCCO)cc2)O[C@H]1c1ccccc1`
stdout: 0.0235

stdin: Query `COCCOC(=O)N1C(=O)[C@@]2(c3cc(C#CC4=CCCCC4)ccc31)[C@H](C(N)=O)[C@H]1C(=O)O[C@H](c3ccccc3)[C@H](c3ccccc3)N1[C@@H]2c1ccccc1OCCO` next
stdout: -0.0028

stdin: Entry [N-]=[N+]=NCc1ccccc1[C@@H]1OC(c2ccc(OCCCO)cc2)=N[C@]1(CCS(=O)(=O)c1ccccc1)C(=O)NCC(O)CO (stereo partly drawn) please
stdout: 0.267

stdin: Also `COCCOC(=O)N1C(=O)[C@@]2(c3cc(C#Cc4ccc(OC)cc4)ccc31)[C@H](c1ccc(O)cc1)N1[C@H](c3ccccc3)[C@H](c3ccccc3)OC(=O)[C@H]1[C@@H]2C(=O)N1CCCCCCC1` , if possible.
stdout: 1.43

stdin: Would you mind doing `O=C1O[C@H](c2ccccc2)[C@H](c2ccccc2)N2[C@H]1[C@@H](C(=O)O)[C@]1(C(=O)Nc3ccc(C#CC4=CCCCC4)cc31)[C@H]2c1ccc(O)cc1` as well?
stdout: 0.0169

stdin: `CCOC(=O)C[C@H]1[C@H](OC(=O)c2cc3ccccc3oc2=O)[C@@H](NC(=O)Cc2ccc(OC)cc2)c2cc(OCCCO)ccc2N1C(=O)c1ccc2ccccc2n1` ?
stdout: -0.11

stdin: How about O=C1NC(=O)C2C1C=CC(C(O)c1c(F)cccc1Cl)N2Nc1ccc(Cl)cc1Cl (stereo not drawn) ?
stdout: 0.319

stdin: Same again, this time with `COCCOC(=O)N1C(=O)[C@@]2(c3cc(C#CC4=CCCCC4)ccc31)[C@H](C(=O)N1CCCCCCC1)[C@H]1C(=O)O[C@H](c3ccccc3)[C@H](c3ccccc3)N1[C@@H]2c1ccc(O)cc1`
stdout: 0.295

stdin: What do you have for O=C1C2C=CC(C(O)c3ccc(Br)cc3)N(Nc3ccccc3F)C2C(=O)N1c1ccccc1 (stereo not drawn) ?
stdout: -0.103

stdin: Now consider `CCCCC(=C=CC[C@@H](O)c1ccccc1OCCO)C[C@@H](O)COCc1ccccc1` .
stdout: -0.166

stdin: Try this compound too: `COc1ccc([Si](C)(C)[C@@H]2[C@@H](CC(=O)N(CCO)Cc3ccccc3)O[C@]3(C(=O)N(Cc4cccc(N5C(=O)c6cccc7cccc5c67)c4)c4ccccc43)[C@H]2C)cc1`
stdout: -0.259

stdin: Lookup `C[C@]1(C(=O)NC2CC2)c2ccccc2C(=O)N(Cc2ccccc2)[C@H]1c1ccc(CO)cc1`
stdout: -0.0873

stdin: And `C=CCNC(=O)[C@H]1[C@@H]2C(=O)O[C@@H](c3ccccc3)[C@@H](c3ccccc3)N2[C@@H](c2ccc(O)cc2)[C@]12C(=O)Nc1ccc(C#CC3(O)CCCCCC3)cc12` ?
stdout: -0.0953

stdin: Now consider COc1ccc(C(O)C2C=CC3C(=O)N(c4ccccc4)C(=O)C3N2Nc2ccc([N+](=O)[O-])cc2)cc1 (stereo not drawn) and answer again.
stdout: 0.432

stdin: What do you have for `C=C[C@@H](OC)[C@H](OC(=O)Nc1ccc(SC)cc1)c1ccc(O)c(F)c1` ?
stdout: -0.0654

stdin: Please do the same for `CCOC(=O)C[C@H]1[C@H](OC(=O)c2ccccc2-c2ccccc2)[C@@H](NC(=O)c2ccc(-c3ccccc3)cc2)c2cc(OCCCO)ccc2N1C(=O)c1ccc2ccccc2n1` as well.
stdout: 0.0332

stdin: Next: `COC(=O)[C@H](Cc1ccccc1)N1CC(/C=C/C2CC2)=C[C@H]1[C@H](O)Cc1ccccc1`
stdout: -0.161
